target: CHK1 (Homo sapiens); experiment: CHK1 kinase function inhibition assay (DELFIA, phosphorylation of a CDC25C peptide); conditions: CHK1 1 nM, ATP 30 μM, 30 minutes at room temperature
Sequence (O14757 whole entry, species assumed): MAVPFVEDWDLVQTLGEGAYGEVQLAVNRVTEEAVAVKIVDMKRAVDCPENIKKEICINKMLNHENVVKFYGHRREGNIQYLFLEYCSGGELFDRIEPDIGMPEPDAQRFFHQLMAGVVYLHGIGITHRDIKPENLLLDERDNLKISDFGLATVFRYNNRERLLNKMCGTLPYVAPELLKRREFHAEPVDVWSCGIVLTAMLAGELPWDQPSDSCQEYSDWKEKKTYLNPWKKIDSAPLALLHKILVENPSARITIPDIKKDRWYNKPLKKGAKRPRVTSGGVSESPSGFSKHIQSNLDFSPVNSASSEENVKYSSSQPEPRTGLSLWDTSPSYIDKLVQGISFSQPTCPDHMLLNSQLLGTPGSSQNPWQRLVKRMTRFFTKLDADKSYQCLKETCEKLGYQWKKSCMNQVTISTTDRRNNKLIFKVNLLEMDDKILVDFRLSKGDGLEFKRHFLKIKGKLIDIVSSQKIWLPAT
readout label: IC50

INPUT: For the record CN(C)CC(=O)Nc1cnc(Nc2cnc(C#N)cn2)cc1N[C@H]1CCCNC1 , what value of IC50 is listed for CHK1 (Homo sapiens)?
OUTPUT: 1000 to 10000 nM

INPUT: For the record N#Cc1cnc(Nc2cc(NCC3CCCNC3)c(NC(=O)CCC3CCNCC3)cn2)cn1 (centres unmarked) , what value of IC50 is listed for CHK1 (Homo sapiens)?
OUTPUT: ≤ 100 nM

INPUT: For the record N#Cc1cnc(Nc2cc(NCC3CCNCC3)c(C(=O)Nc3ccc(OCCN4CCOCC4)cc3)cn2)cn1 , what value of IC50 is listed for CHK1 (Homo sapiens)?
OUTPUT: ≤ 100 nM

INPUT: For the record COCc1ccc(-c2cnc(Nc3cnc(C#N)cn3)cc2NCC2CCNCC2)cc1 , what value of IC50 is listed for CHK1 (Homo sapiens)?
OUTPUT: ≤ 100 nM

INPUT: For the record COC(=O)c1cnc(Nc2cnc(C#N)cn2)cc1N(C)CC1CCNCC1 , what value of IC50 is listed for CHK1 (Homo sapiens)?
OUTPUT: ≤ 100 nM

Switching to the query record.
INPUT: For the record N#Cc1cnc(Nc2cc(NC[C@H]3CCCNC3)c(N)cn2)cn1 , what value of IC50 is listed for CHK1 (Homo sapiens)?
OUTPUT: ≤ 100 nM

Where do these numbers come from? They come from patent US8367658B2.
